Organism: Rattus norvegicus
Assay: Open TG-GATES - Regimen: Daily Repeat
Format: toxicity, organism-based, Sprague-Dawley
Design: regimen Daily Repeat, gender Male, age 6 weeks
Conditions: in vivo, po, 0 mg/kg, […], tissue Blood, route gavage, dose level Control, time 7 day
Property Name: Eos
# output: numeric value plus its unit

Below, 3 compounds whose answers are already recorded.
CC(=O)Nc1nnc(S(N)(=O)=O)s1 [ACETAZOLAMIDE]: 0.8%
CC(CN1c2ccccc2Sc2ccccc21)N(C)C (stereo not given): 0.8%
CN1C(C(=O)Nc2ccccn2)=C(O)c2sc(Cl)cc2S1(=O)=O: 0.8%

Please go through the list and note Eos for each compound.
1. C#C[C@]1(O)CC[C@H]2[C@@H]3CCC4=Cc5oncc5C[C@]4(C)[C@H]3CC[C@@]21C
2. Clc1c(Cl)c(Cl)c(Cl)c(Cl)c1Cl

Reply text:
1: 1%; 2: 1.2%

---

Species: Rattus norvegicus
Experiment: Open TG-GATES - Regimen: Single
Assay type: toxicity, organism-based, Sprague-Dawley
Set-up: regimen Single, gender Male, age 6 weeks
Settings: in vivo, po, 0 mg/kg, 3 h, tissue Plasma, route gavage, dose level Control
Would you mind telling me the reported ALT of each entry?
One number for each entry, in IU/L.

Below, 5 compounds whose answers are already recorded.
CN(C)[C@@H]1C(O)=C(C(N)=O)C(=O)[C@@]2(O)C(O)=C3C(=O)c4c(O)cccc4[C@@](C)(O)[C@H]3C[C@@H]12: 35.8
CCOC(=O)[C@H](CCc1ccccc1)N[C@@H](C)C(=O)N1CCC[C@H]1C(=O)O: 37.6
CC(CN1c2ccccc2Sc2ccccc21)N(C)C (centres undefined): 42.8
C#C[C@]1(O)CC[C@H]2[C@@H]3CCC4=Cc5oncc5C[C@]4(C)[C@H]3CC[C@@]21C: 41.8
Cc1cccc(Nc2ccccc2C(=O)O)c1C: 35

Please go through the list and note ALT for each compound.
1. Clc1c(Cl)c(Cl)c(Cl)c(Cl)c1Cl
2. COc1cc([C@@H]2c3cc4c(cc3[C@@H](O[C@@H]3O[C@@H]5CO[C@@H](C)O[C@H]5[C@H](O)[C@H]3O)[C@H]3COC(=O)[C@H]23)OCO4)cc(OC)c1O [ETOPOSIDE]
3. C1CCC(C(CC2CCCCN2)C2CCCCC2)CC1 (centres undefined)

Reply text:
1. 42.8
2. 32.8
3. 42.6

The measured ALT associated with `CN1C(C(=O)Nc2ccccn2)=C(O)c2sc(Cl)cc2S1(=O)=O` reads 36.2

---

Species: Rattus norvegicus
Assay: Open TG-GATES - Regimen: Daily Repeat
Assay type: toxicity, organism-based, Sprague-Dawley
Parameters: regimen Daily Repeat, gender Male, age 6 weeks
Settings: in vivo, po, 0 mg/kg, […], tissue Blood, route gavage, dose level Control, time 28 day
Property Name: Ret (%)
One number for each entry, in %.

CCOC(=O)[C@H](CCc1ccccc1)N[C@@H](C)C(=O)N1CCC[C@H]1C(=O)O: 3.1
CC(=O)Nc1nnc(S(N)(=O)=O)s1 [ACETAZOLAMIDE]: 2.8
C1CCC(C(CC2CCCCN2)C2CCCCC2)CC1 (stereo not given): 5.6
O=C(O)Cc1ccccc1Nc1c(Cl)cccc1Cl: 2.3
CC(CN1c2ccccc2Sc2ccccc21)N(C)C (stereo not given): 2.9
CN(C)[C@@H]1C(O)=C(C(N)=O)C(=O)[C@@]2(O)C(O)=C3C(=O)c4c(O)cccc4[C@@](C)(O)[C@H]3C[C@@H]12: 2.9
C#C[C@]1(O)CC[C@H]2[C@@H]3CCC4=Cc5oncc5C[C@]4(C)[C@H]3CC[C@@]21C: 2.1
CN1C(C(=O)Nc2ccccn2)=C(O)c2sc(Cl)cc2S1(=O)=O: 2

Please go through the list and note Ret for each compound.
1. Cc1cccc(Nc2ccccc2C(=O)O)c1C
2. Clc1c(Cl)c(Cl)c(Cl)c(Cl)c1Cl

Reply text:
[2.7, 2.5]

---

Species: Rattus norvegicus
Experiment: Open TG-GATES - Regimen: Daily Repeat
Type: toxicity, organism-based, Sprague-Dawley
Design: regimen Daily Repeat, gender Male, age 6 weeks
Details: in vivo, po, 0 mg/kg, […], tissue Blood, route gavage, dose level Control, time 7 day
Property Name: Fbg (mg/dL)
One number for each entry, in mg/dL.

C1CCC(C(CC2CCCCN2)C2CCCCC2)CC1 (stereo not given) [PERHEXILINE]: 316.4

Please go through the list and note Fbg for each compound.
1. Cc1cccc(Nc2ccccc2C(=O)O)c1C [MEFENAMIC ACID]
2. CN(C)[C@@H]1C(O)=C(C(N)=O)C(=O)[C@@]2(O)C(O)=C3C(=O)c4c(O)cccc4[C@@](C)(O)[C@H]3C[C@@H]12 [TETRACYCLINE]
3. Clc1c(Cl)c(Cl)c(Cl)c(Cl)c1Cl [PERCHLOROBENZENE]
4. CC(CN1c2ccccc2Sc2ccccc21)N(C)C (stereo not given) [PROMETHAZINE]

Reply text:
[219.2, 226.7, 222.8, 293.8]

---

Organism: Rattus norvegicus
Assay: Open TG-GATES - Regimen: Single
Format: toxicity, organism-based, Sprague-Dawley
Parameters: regimen Single, gender Male, age 6 weeks
Details: in vivo, po, 0 mg/kg, 6 h, tissue Blood, route gavage, dose level Control
Kind request: treat 3% as inclusive, so Mono at 3% or higher is criterion met, anything lower is criterion not met.

The following compounds have reported results that may help.
CCOC(=O)[C@H](CCc1ccccc1)N[C@@H](C)C(=O)N1CCC[C@H]1C(=O)O: criterion met
CC(=O)Nc1nnc(S(N)(=O)=O)s1 [ACETAZOLAMIDE]: criterion not met
CN1C(C(=O)Nc2ccccn2)=C(O)c2sc(Cl)cc2S1(=O)=O: criterion not met
Clc1c(Cl)c(Cl)c(Cl)c(Cl)c1Cl: criterion met

Inquiry: Check the entry COc1cc([C@@H]2c3cc4c(cc3[C@@H](O[C@@H]3O[C@@H]5CO[C@@H](C)O[C@H]5[C@H](O)[C@H]3O)[C@H]3COC(=O)[C@H]23)OCO4)cc(OC)c1O [ETOPOSIDE] : does Mono equal or exceed 3%?
Reply text: criterion met

Inquiry: Check the entry `CN(C)[C@@H]1C(O)=C(C(N)=O)C(=O)[C@@]2(O)C(O)=C3C(=O)c4c(O)cccc4[C@@](C)(O)[C@H]3C[C@@H]12` : does Mono equal or exceed 3%?
Reply text: criterion met

---

Organism: Rattus norvegicus
Experiment: Open TG-GATES - Regimen: Single
Type: toxicity, organism-based, Sprague-Dawley
Parameters: regimen Single, gender Male, age 6 weeks
Settings: in vivo, po, 0 mg/kg, 9 h, tissue Blood, route gavage, dose level Control
Property Name: Ht (%)
One number for each entry, in %.

C1CCC(C(CC2CCCCN2)C2CCCCC2)CC1 (stereo not given) [PERHEXILINE]: 39.2
COc1cc([C@@H]2c3cc4c(cc3[C@@H](O[C@@H]3O[C@@H]5CO[C@@H](C)O[C@H]5[C@H](O)[C@H]3O)[C@H]3COC(=O)[C@H]23)OCO4)cc(OC)c1O [ETOPOSIDE]: 39.7
Cc1cccc(Nc2ccccc2C(=O)O)c1C [MEFENAMIC ACID]: 38.3
CN(C)[C@@H]1C(O)=C(C(N)=O)C(=O)[C@@]2(O)C(O)=C3C(=O)c4c(O)cccc4[C@@](C)(O)[C@H]3C[C@@H]12 [TETRACYCLINE]: 40.3
Clc1c(Cl)c(Cl)c(Cl)c(Cl)c1Cl [PERCHLOROBENZENE]: 38.6
CC(CN1c2ccccc2Sc2ccccc21)N(C)C (stereo not given) [PROMETHAZINE]: 40.1

Please go through the list and note Ht for each compound.
1. CC(=O)Nc1nnc(S(N)(=O)=O)s1 [ACETAZOLAMIDE]
2. C#C[C@]1(O)CC[C@H]2[C@@H]3CCC4=Cc5oncc5C[C@]4(C)[C@H]3CC[C@@]21C [DANAZOL]
3. CCOC(=O)[C@H](CCc1ccccc1)N[C@@H](C)C(=O)N1CCC[C@H]1C(=O)O
4. CN1C(C(=O)Nc2ccccn2)=C(O)c2sc(Cl)cc2S1(=O)=O [LORNOXICAM]

Reply text:
39.7
40.9
39.6
39.8

---

Species: Rattus norvegicus
Assay: Open TG-GATES - Regimen: Single
Type: toxicity, organism-based, Sprague-Dawley
Parameters: regimen Single, gender Male, age 6 weeks
Conditions: in vivo, po, 0 mg/kg, 24 h, tissue Blood, route gavage, dose level Control
Would you mind telling me the reported Eos of each entry?
Give bare numbers, in %.

Below, 5 molecules whose answers are already recorded.
O=[N+]([O-])c1ccc2c(c1)Cc1ccccc1-2 [2-NITROFLUORENE]: 0.8
CN(C)[C@@H]1C(O)=C(C(N)=O)C(=O)[C@@]2(O)C(O)=C3C(=O)c4c(O)cccc4[C@@](C)(O)[C@H]3C[C@@H]12 [TETRACYCLINE]: 0.8
C#C[C@]1(O)CC[C@H]2[C@@H]3CCC4=Cc5oncc5C[C@]4(C)[C@H]3CC[C@@]21C [DANAZOL]: 0.8
CN1C(C(=O)Nc2ccccn2)=C(O)c2sc(Cl)cc2S1(=O)=O [LORNOXICAM]: 1
Clc1c(Cl)c(Cl)c(Cl)c(Cl)c1Cl [PERCHLOROBENZENE]: 0.8

Please go through the list and note Eos for each molecule.
1. Cc1cccc(Nc2ccccc2C(=O)O)c1C [MEFENAMIC ACID]
2. COc1cc([C@@H]2c3cc4c(cc3[C@@H](O[C@@H]3O[C@@H]5CO[C@@H](C)O[C@H]5[C@H](O)[C@H]3O)[C@H]3COC(=O)[C@H]23)OCO4)cc(OC)c1O [ETOPOSIDE]
3. CCOC(=O)[C@H](CCc1ccccc1)N[C@@H](C)C(=O)N1CCC[C@H]1C(=O)O

Reply text:
1: 1; 2: 1.2; 3: 1.4

Reference source for all entries: ChEMBL document CHEMBL3885861
